Tested on: 786-0 renal
Experiment: NCI-60 one-dose screen, 48 h
Details: 10 µM
Experimental: Cells are grown in 96 well plates and exposed to the test compound for 48 hours. Compounds are tested at a single concentration, which is 10^-5 M for most compounds. The reported endpoint is percent growth (GI% or GIPRCNT), where numbers from 0 - 100% represent growth inhibition, and numbers from -100% - 0 represent cell death. For example, a value of 40 represents 60% growth inhibition. A value of 0 means no net growth occurred over the course of the experiment. […]
Compounds without any hit were thinned out: in the full panel of roughly 83,000, 20% have a hit. Activity calls are given as the source filed them. Rule for the calls: active = growth percent below 10; inactive = the rest.
Possible outcomes: active, inactive

- MOLECULE: "CN(C)Cc1cc(C(C)(C)CC(C)(C)C)ccc1O"
  MEASUREMENT_TARGET: "786-0 renal"
  CLASS_LABEL: "inactive"
- MOLECULE: "CCOC(=O)C(C#N)Cc1ccccc1 (stereo not drawn)"
  MEASUREMENT_TARGET: "786-0 renal"
  CLASS_LABEL: "inactive"
- MOLECULE: "Cc1cc(N2CCC(N3CCCC3)CC2)nc(/N=C(\\N)Nc2ccc(Cl)c(Cl)c2)n1"
  MEASUREMENT_TARGET: "786-0 renal"
  CLASS_LABEL: "active"
- MOLECULE: "COC(=O)c1ccccc1Br"
  MEASUREMENT_TARGET: "786-0 renal"
  CLASS_LABEL: "inactive"
- MOLECULE: "CCCCC1C(=O)N(c2ccccc2)N(c2ccccc2)C1=O"
  MEASUREMENT_TARGET: "786-0 renal"
  CLASS_LABEL: "inactive"
- MOLECULE: "Cc1ccc(S(=O)(=O)O)c(C)c1"
  MEASUREMENT_TARGET: "786-0 renal"
  CLASS_LABEL: "inactive"
- MOLECULE: "COc1ccc(C2(O)CCCCC2)cc1"
  MEASUREMENT_TARGET: "786-0 renal"
  CLASS_LABEL: "inactive"
- MOLECULE: "Cc1cc(Cc2cc(C)c(N)cc2N)c(N)cc1N"
  MEASUREMENT_TARGET: "786-0 renal"
  CLASS_LABEL: "inactive"
- MOLECULE: "O=[N+]([O-])c1ccc(O)c(S(=O)(=O)O)c1"
  MEASUREMENT_TARGET: "786-0 renal"
  CLASS_LABEL: "inactive"
- MOLECULE: "Cc1ccc(Cl)cc1N1C(=O)CC(Sc2ccccc2N)C1=O (stereo not drawn)"
  MEASUREMENT_TARGET: "786-0 renal"
  CLASS_LABEL: "inactive"
- MOLECULE: "NC(C(=O)O)C(O)c1ccco1 (stereo not drawn)"
  MEASUREMENT_TARGET: "786-0 renal"
  CLASS_LABEL: "inactive"
- MOLECULE: "CC1(O)CCCCC1O (stereo not drawn)"
  MEASUREMENT_TARGET: "786-0 renal"
  CLASS_LABEL: "inactive"
- MOLECULE: "N#Cc1ccc(NC(=O)Nc2cccc(C#N)c2)cc1"
  MEASUREMENT_TARGET: "786-0 renal"
  CLASS_LABEL: "inactive"

* * *

tested on: COLO 205 colon; test: NCI-60 one-dose screen, 48 h (100 = growth as untreated, 0 = no growth, -100 = all killed); settings: 10 µM
This is part of a sample that, as a whole, favours compounds with a hit. Of some 83,000 tested, about 20% had one in any assay.
Measured growth, listed per entry for reference.

- COMPOUND: "CCCCNC(=O)C(=O)NCCCC"
  growth / %: 117
- COMPOUND: "COC(=O)c1cccc(Br)c1"
  growth / %: 121
- COMPOUND: "Nc1ccc(N=Nc2ccc(S(=O)(=O)O)cc2)c2ccccc12"
  growth / %: 90.7
- COMPOUND: "O=C(O)c1cccc([N+](=O)[O-])c1O"
  growth / %: 105
- COMPOUND: "c1ccc(/C(=N\\N=C(/c2ccccc2)c2cccs2)c2cccs2)cc1"
  growth / %: 99.3
- COMPOUND: "O=C1C=CC(=O)N1c1ccc(I)cc1Cl"
  growth / %: 113
- COMPOUND: "Clc1ccc(-c2nnc(-c3cccc4ccccc34)o2)cc1"
  growth / %: 101
- COMPOUND: "OC1CCCc2ccccc21 (stereo not drawn)"
  growth / %: 115
- COMPOUND: "COc1cc(C2c3cc4c(cc3C3OC(=O)C2C3CO)OCO4)cc(OC)c1OC (stereo not drawn)"
  growth / %: -92.4
- COMPOUND: "O=C(O)c1cccc([N+](=O)[O-])c1"
  growth / %: 113
- COMPOUND: "C#CC(C(C)C)N(CCO)CCCC (stereo not drawn)"
  growth / %: 108
- COMPOUND: "CCCC(=O)Nc1ccc2c(c1)CN1C(=O)c3ccccc3C1=N2"
  growth / %: 109
- COMPOUND: "COc1ccccc1N=Nc1c(O)ccc2cc(S(=O)(=O)O)ccc12"
  growth / %: 104
